All figures here come from PubChem BioAssay (NCI).

# measurement.description: NCI Yeast Anticancer Drug Screen. Data for the bub3 strain (AID 167)
# test.parameters: S. cerevisiae bub3 mutant strain, at 50.0 µM (retest, dose inferred, filed as 5.0), hits give high values
Compounds without any hit were thinned out: in the full panel of roughly 79,000, 15% have a hit.

molecule | unit.abbreviation | growth inhibition
O=[N+]([O-])c1cccc(N=Cc2ccc(N(CCCl)CCCl)cc2)c1 | % | 74
C=CO/C(C)=C(\[Se]c1ccccc1)C(C)=O | % | 65
CC(Cc1ccccc1)N(C)Cc1ccc(-c2ccc(Cl)cc2)o1 (centres undefined) | % | 100
C=CCN(CC=C)CC(C(C)=O)C(c1ccccc1)c1c(O)c2ccccc2oc1=O (centres undefined) | % | 27
O=c1oc2ccccc2c(O)c1C(c1ccc2ccccc2c1)c1c(O)c2ccccc2oc1=O | % | 93
NC(=O)/C=C/C(=O)O (tested in a mixture with another compound) | % | -4
C/C(=C\c1ccc2c(c1)OCO2)[N+](=O)[O-] | % | 96
COc1c(O)c2c(c3cc(C(=O)N4CCc5c4c(O)c(OC)c4[nH]c(C(=O)N6CC7CC78C6=CC(=O)c6[nH]cc(C)c68)cc54)[nH]c13)CCN2C(N)=O (centres undefined) | % | 96
N=P(c1ccccc1)(c1ccccc1)c1ccccc1.[O]=[Cr](=[O])([OH])[O][Cr](=[O])(=[O])[OH] | % | 81

* * *

# measurement.description: NCI Yeast Anticancer Drug Screen. Data for the mgt1 strain (AID 153)
# test.parameters: S. cerevisiae mgt1 mutant growth inhibition; at 33.0 µM; hits give high values
About 79,000 compounds went through this panel and 15% of them were active in at least one assay; those are over-represented in the sample as a whole.
reported.endpoint: growth inhibition (%)

compound | unit.abbreviation | readout.value
Cc1ccc2c(c1N)C(=O)c1ccccc1C2=O | % | -8
c1c(N2CCOCC2)ssc1=[N+]1CCOCC1 | % | 0
CN(C)CCC(C(=O)C(Br)Br)(c1ccccc1)c1ccccc1 | % | 99
CC12CCC(C1)C(C)(C)C2OC(=O)c1ccccc1N (stereo unspecified) | % | -9
O=S(=O)(O)/C(=C\c1ccccc1)c1ccccc1 (tested in a mixture with another compound) | % | -2
O=C1C=CC(=O)C1(Br)Br | % | 91
CC(C)CC(NC(=O)C(N)C(C)C)C(=O)NC(CCCCN)C(=O)Nc1ccc(N(CCCl)CCCl)cc1 (stereo unspecified) | % | -5
Cc1c([N+](=O)[O-])oc2ccc3ccccc3c12 | % | 8
S=C1NC2(CCCCC2)NC12CCCCC2 | % | 17
O=C1c2ccc3ccccc3c2CCC1N1CCCCC1 (stereo unspecified) | % | 76
COc1cccc2c1C(=O)c1c(O)c3c(c(O)c1C2=O)C[C@@](O)(C(C)=O)C[C@@H]3OC1CC(N)C(OC2CC(O)C(O)C(C)O2)C(C)O1 (stereo partly specified) | % | -14
C[N+]1(CCCl)CC[N+](C)(CCCl)CC1 (stereo unspecified) | % | 29
CC1CN=C(Nc2ccccc2)S1 (stereo unspecified) | % | -51
COc1cc([C@@H]2c3cc4c(cc3C[C@@H]3COC(=O)C32)OCO4)cc(OC)c1O (stereo partly specified) | % | 59
CCN(CCCl)c1cc(CN(C)C)cc(NC(=O)c2ccc(C(=O)Nc3cc(CN(C)C)cc(N(CC)CCCl)c3)cc2)c1 | % | 10
Cn1cc(NC(=O)c2cc(NC(=O)CN=C(N)N)cn2C)cc1C(=O)NCCC(=N)N | % | 94

* * *

# measurement.description: NCI Yeast Anticancer Drug Screen. Data for the cln2 rad14 strain (AID 165);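 also: 0% = growth equal to vehicle treated cultures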
# test.parameters: S. cerevisiae cln2 rad14 strain, at 5.0 µM (retest, dose inferred, filed as 0.5), hits give high values
The panel holds about 79,000 compounds, 15% with a hit somewhere; the sample as a whole holds those more often.

molecule | growth inhibition, %
Cc1ccc2c(c1)SP(=S)(c1ccccc1)N2 (configuration not stated) | 15
C[CH2][Sn]([Cl])([CH2]C)[O][Sn]([CH2]C)([CH2]C)[O][Sn]([Cl])([CH2]C)[CH2]C | 15
CC(NCCN(C)C)C1CC2CCCCN2C1 (configuration not stated) | -17
O=C1C2CC(Cl)C(SSC3CC4C(=O)N(SC(Cl)(Cl)C(Cl)Cl)C(=O)C4CC3Cl)CC2C(=O)N1SC(Cl)(Cl)C(Cl)Cl (configuration not stated) | -20
CC(Cc1ccccc1)N(C)Cc1ccc(-c2ccccc2)o1 (configuration not stated) | 16
Cc1cc(C)c(O)c(C)c1.[Hg] | 99
C/C(=N\NS(=O)(=O)c1ccc(C)cc1)C(CN1CCOCC1)C(c1ccccc1)c1c(O)c2ccccc2oc1=O (configuration not stated) | 5
CCC[CH2][Sn]([Cl])([Cl])[CH2]CCC | 98
CCCNC(=O)Nc1ccc2c(c1)Cc1cc(N(CCCl)CCCl)ccc1-2 | 3
CCOP(=O)(OCC)/C(C#N)=C/c1cccc(C)c1 | -17
N.N.N.N.N.N#N.[Cl-].[Os+7] | 14
Cc1cccc2cc3ccccc3c[n+]12 | 2
COC1OC(COC(C)=O)C(OC(C)=O)C(OC(C)=O)[CH]1[Hg][I] (configuration not stated) | 99
CC1(C)CCC(C)(C)c2cc(Cl)c(O)cc21 | 5
c1ccc(N=c2nc(N3CCOCC3)ss2)cc1 | -5
O=C1[O][Hg][c]2cccc3cccc1c23 | 89
[Br][Ni][Br].c1ccc(CN2CCN(Cc3ccccc3)CCN(Cc3ccccc3)CCN(Cc3ccccc3)CC2)cc1 | -2

* * *

# measurement.description: NCI Yeast Anticancer Drug Screen. Data for the rad50 strain (AID 155);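 also: 0% = growth of vehicle-only cultures of the same strain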
# test.parameters: S. cerevisiae rad50 strain growth inhibition; at 50.0 µM; hits give high values
Compounds without any hit were thinned out: in the full panel of roughly 79,000, 15% have a hit.
Dear colleague, classification is by growth inhibition, with ranges listed here: bottom = under 70%, middle = from 70% up to 90%, top = 90% and over

compound | group.label
CNCC(O)c1cn(C)c2ccccc12 (stereo not drawn) | bottom
Nc1ccccc1C(=O)OCCc1ccccc1 | middle
Nc1ccc(Cl)cc1C(=O)c1ccccc1Cl | top
CC1(C)N([O-])[N+](=O)C1(C)Br (stereo not drawn) | bottom
[Cl][Sn]([c]1ccccc1)[c]1ccccc1 | middle
CCC[As](CCC)SC1CCC2(C)C(=CCC3C4CCC(=O)C4(C)CCC32)C1 (stereo not drawn) | bottom
CC(=O)OCC12CCC(C)=CC1OC1C3(O)N=C(C)OC3C2(C)C12CO2 (stereo not drawn) | bottom
CCC[CH2][Sn][Cl] | top
Clc1ccc2c(NCCCCN3OC3c3ccccc3)ccnc2c1 (stereo not drawn) | bottom
O=P(Oc1ccc(Cl)cc1)(Oc1ccc(Cl)cc1)N1CC1 | bottom
[Cl][Sn]([Cl])([c]1ccccc1)[c]1ccccc1.c1ccncc1.c1ccncc1 | top
O=C(C1C(c2ccccc2)N1C(c1ccccc1)c1ccccc1)C1C(c2ccccc2)N1C(c1ccccc1)c1ccccc1 (stereo not drawn) | middle
CC(C)NCC(O)c1ccc(O)c(O)c1.[Pt].c1ccc([PH+](c2ccccc2)c2ccccc2)cc1.c1ccc([PH+](c2ccccc2)c2ccccc2)cc1 | top
CCN1/C(=C\c2ccc3cc(C)ccc3[n+]2CC)[Se]c2ccccc21 | top
CCC(=O)C(CCN1CCC2(CCCc3ccccc32)CC1)(c1ccccc1)c1ccccc1 | top
O=[N+]([O-])c1ccc(N2CCC(CCCC3CCN(c4ccc([N+](=O)[O-])cc4[N+](=O)[O-])CC3)CC2)c([N+](=O)[O-])c1 | middle
C[n+]1c(/C=C/c2ccc(O)c3ncccc23)[se]c2ccccc21 | top
O=C(Nc1ccccc1)OC(C[N+](=O)[O-])C(Cl)(Cl)Cl (stereo not drawn) | top
CC(Cc1ccccc1)N(C)Cc1ccc(-c2ccccc2)o1 (stereo not drawn) | bottom
Cc1ccc2c(c1)SP(=S)(c1ccccc1)N2 (stereo not drawn) | top
CCC1(O)C(=O)OCc2c1cc1n(c2=O)Cc2cc3cc(Cl)ccc3nc2-1 (stereo not drawn) | top
CCN(CCCl)c1cc(CN(C)C)cc(NC(=O)c2ccc(C(=O)Nc3cc(CN(C)C)cc(N(CC)CCCl)c3)cc2)c1 | middle
O=P1(NCCCl)OC(c2ccccc2)=CCN1CCCl (stereo not drawn) | top
CCCN(CCC)c1c([N+](=O)[O-])cc(S(N)(=O)=O)cc1[N+](=O)[O-] | bottom

* * *

# measurement.description: NCI Yeast Anticancer Drug Screen. Data for the sgs1 mgt1 strain (AID 161);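 also: 0% = growth of cultures given vehicle only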
# test.parameters: S. cerevisiae sgs1 mgt1 strain, at 50.0 µM
About 79,000 compounds went through this panel and 15% of them were active in at least one assay; those are over-represented in the sample as a whole. Calls of active or inactive are those of the source. Rule as the data show it: active = growth inhibition above about 70%; inactive = the rest.
Outcomes: active, inactive

molecule | group.label
CCOC(=O)C1=C(C(=O)OCC)C2(c3ccccc3)N(O1)c1ccccc1C2(C)C (stereo unspecified) | active
CC(=O)C(CN(C(C)C)C(C)C)C(c1ccccc1)c1c(O)c2ccccc2oc1=O (stereo unspecified) | inactive
O=c1oc2ccccc2c(O)c1C(c1ccc2ccccc2c1)c1c(O)c2ccccc2oc1=O | inactive
Oc1ccc([Te]CCNCC[Te]c2ccc(O)cc2)cc1 | inactive
ClC1=NSSC1(Cl)Cl | active
C[C@]12CC/C(=N\NC(=O)c3ccncc3)C[C@@H]1CC[C@@H]1[C@@H]2CC[C@]2(C)[C@@H](O)CC[C@@H]12 | active
CCC(C)(c1ccc(O)cc1)c1ccc(O)cc1 | active
CN(CCc1ccc(Br)cc1)CCN1CCCCC1 | active
CC(=O)C(Br)C(C)=O.CC(=O)C(Br)C(C)=O.CC(=O)C(Br)C(C)=O.[Rh] | active
C[CH2][Sn]([CH2]C)([O]S(C)(=O)=O)[O]S(C)(=O)=O | inactive
CSc1ncc(COP(=S)(OCc2cnc(SC)nc2N)OCc2cnc(SC)nc2N)c(N)n1 | inactive
CC(=O)OC(C)(C)/C=C/C(=O)[C@](C)(O)[C@H]1[C@H](O)C[C@@]2(C)[C@@H]3CC=C4[C@@H](C[C@H](O)[C@H](O)C4(C)C)[C@]3(C)C(=O)C[C@]12C | active
CCOP(=S)(S)OCC.[Pd] | active
COC1=CC(C)(C)C=C([Se][Se]C2=CC(C)(C)C=C(OC)C2=O)C1=O | active
CC(C)(C)CC(C)(C)c1ccc(O)cc1 | active
CC(=O)C1CCC2C3CCC4=CC(=[N+]5CCCCC5)CCC4(C)C3CCC12C (stereo unspecified) | active
Cc1nc2c(Br)cc(Br)cc2c(=O)n1-c1ccccc1N | inactive
O=c1oc2ccccc2c(O)c1C(c1ccc2c(c1)Cc1ccccc1-2)c1c(O)c2ccccc2oc1=O | active
CN(C)C(=O)Oc1c(Cl)cc(Cl)c(Cl)c1Cl | inactive
Cc1ccc2c(c1)SP(=S)(c1ccccc1)N2 (stereo unspecified) | active
COC1CC2C(C[CH]1[Hg][Cl])C2(Cl)Cl (stereo unspecified) | active
O=C(O)CCCc1cc(I)c(N(CCCl)CCCl)c(I)c1 | inactive
[CH3][Sn]([CH3])([Cl])[c]1cc[c]([Sn]([CH3])([CH3])[Cl])cc1 | active
O=P1(Oc2ccccc2)C(c2ccccc2)C(c2ccccc2)=NN1c1ccccc1 (stereo unspecified) | active
COc1cc([C@@H]2c3cc4c(cc3C[C@@H]3COC(=O)C32)OCO4)cc(OC)c1O (stereo partly specified) | active
CCCCCCNC(=O)CI | inactive
